- target of assay: C3 convertase (CVF:Bb) (Homo sapiens)
- Sequence (P00751 260-764 limits assumed): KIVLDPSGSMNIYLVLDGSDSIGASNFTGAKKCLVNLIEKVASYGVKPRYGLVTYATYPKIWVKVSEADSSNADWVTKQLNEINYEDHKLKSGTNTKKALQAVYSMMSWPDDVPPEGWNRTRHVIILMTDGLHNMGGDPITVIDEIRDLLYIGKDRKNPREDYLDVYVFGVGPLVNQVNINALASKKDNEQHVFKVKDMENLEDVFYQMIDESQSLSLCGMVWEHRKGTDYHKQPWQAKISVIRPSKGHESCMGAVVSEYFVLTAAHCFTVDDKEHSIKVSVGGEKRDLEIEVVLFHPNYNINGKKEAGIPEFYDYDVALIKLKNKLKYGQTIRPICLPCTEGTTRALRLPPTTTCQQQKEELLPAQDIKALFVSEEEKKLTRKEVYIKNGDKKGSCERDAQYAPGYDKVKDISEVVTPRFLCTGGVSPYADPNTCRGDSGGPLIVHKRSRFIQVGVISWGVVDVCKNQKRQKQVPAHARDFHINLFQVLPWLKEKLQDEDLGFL
experimental endpoint: IC50 (µM)
Only the number, expressed in µM, is required.

Asked: Indicate the recorded IC50 value for this molecule: COc1cc(Cl)c2[nH]ccc2c1CN1CCN(CC(F)F)C[C@H]1c1ccc(C(=O)O)cc1 [drawing 446]
Given back: 3.15

Asked: Indicate the recorded IC50 value for this molecule: COc1cc(C)c2[nH]ccc2c1CN1CCN(CC(C)C)CC1c1ccc(C(=O)O)cc1 (stereo not drawn)
Given back: 4.67

Asked: Indicate the recorded IC50 value for this molecule: COc1cc(C)c2[nH]ccc2c1CN1CCN(CCC(F)(F)F)C[C@H]1c1ccc(C(=O)O)cc1
Given back: 0.029

Asked: Indicate the recorded IC50 value for this molecule: COc1cc(C)c2[nH]ccc2c1CN1CCN(C)C(=O)[C@H]1c1ccc(C(=O)O)cc1
Given back: 0.36

Asked: Indicate the recorded IC50 value for this molecule: COc1cc(C)c2[nH]ccc2c1CN1CCN(C(C)C(F)F)C[C@H]1c1ccc(C(=O)O)cc1 (stereo partly drawn)
Given back: 0.228

Asked: Indicate the recorded IC50 value for this molecule: COc1cc(C)c2[nH]ccc2c1CN1CCN(C2CCC2)CC1c1ccc(C(=O)O)cc1 (stereo not drawn)
Given back: 2.58

Asked: Indicate the recorded IC50 value for this molecule: COc1cc(C)c2[nH]ccc2c1CN1CCN(CC(F)F)CC1c1ccc(C(=O)O)cc1 (stereo not drawn)
Given back: 0.076

Asked: Indicate the recorded IC50 value for this molecule: COc1cc(C)c2[nH]ccc2c1CN1CCN(C(C)C)CC1c1ccc(C(=O)O)cc1 (stereo not drawn)
Given back: 0.652

Asked: Indicate the recorded IC50 value for this molecule: CCN1CCN(Cc2c(OC)cc(C)c3[nH]ccc23)C(c2ccc(C(=O)O)cc2)C1 (stereo not drawn)
Given back: 0.219

Asked: Indicate the recorded IC50 value for this molecule: CCC(C)N1CCN(Cc2c(OC)cc(C)c3[nH]ccc23)C(c2ccc(C(=O)O)cc2)C1 (stereo not drawn)
Given back: 0.405

Asked: Indicate the recorded IC50 value for this molecule: COc1cc(C)c2[nH]ccc2c1CN1CC2(CC2)N(C)C[C@H]1c1ccc(C(=O)O)cc1
Given back: 7.39

Asked: Indicate the recorded IC50 value for this molecule: COc1cc(C)c2[nH]ccc2c1CN1CCN(Cc2ncco2)C[C@H]1c1ccc(C(=O)O)cc1
Given back: 9.11

Asked: Indicate the recorded IC50 value for this molecule: COc1cc(C)c2[nH]ccc2c1CN1CCN(CC2CCCC2)CC1c1ccc(C(=O)O)cc1 (stereo not drawn)
Given back: 3.08

Asked: Indicate the recorded IC50 value for this molecule: COc1cc(C)c2[nH]ccc2c1CN1CCN(CCCF)C[C@H]1c1ccc(C(=O)O)cc1
Given back: 0.099

Asked: Indicate the recorded IC50 value for this molecule: COc1cc(C)c2[nH]ccc2c1CN1CCN(Cc2ccccc2)CC1c1ccc(C(=O)O)cc1 (stereo not drawn)
Given back: 5.24

Asked: Indicate the recorded IC50 value for this molecule: Cc1cc(C2CC2)c(CN2CCN(CC(F)(F)F)C[C@H]2c2ccc(C(=O)O)cc2)c2cc[nH]c12
Given back: 0.348

Asked: Indicate the recorded IC50 value for this molecule: COc1cc(C)c2[nH]ccc2c1CN1CCN(C2CC2)CC1c1ccc(C(=O)O)cc1 (stereo not drawn)
Given back: 0.141

Asked: Indicate the recorded IC50 value for this molecule: COc1cc(C)c2[nH]ccc2c1CN1CCN(C2CC2)C[C@@H]1c1ccc(C(=O)O)cc1 (single isomer, unassigned)
Given back: 4.38

Asked: Indicate the recorded IC50 value for this molecule: C=CCN1CCN(Cc2c(OC)cc(C)c3[nH]ccc23)C(c2ccc(C(=O)O)cc2)C1 (stereo not drawn)
Given back: 0.25

Asked: Indicate the recorded IC50 value for this molecule: COc1cc(Cl)c2[nH]ccc2c1CN1CCN(CC(F)(F)F)C[C@H]1c1ccc(C(=O)O)cc1
Given back: 2.35

Asked: Indicate the recorded IC50 value for this molecule: COc1cc(C)c2[nH]ccc2c1CN1CC(=O)N(C)C[C@H]1c1ccc(C(=O)O)cc1
Given back: 6.4

Asked: Indicate the recorded IC50 value for this molecule: COc1cc(C)c2[nH]ccc2c1CN1CCN(C)C[C@H]1c1ccc(C(=O)O)cc1 (single isomer, unassigned)
Given back: 0.045

Asked: Indicate the recorded IC50 value for this molecule: COc1cc(C)c2[nH]ccc2c1CN1CCN(CCF)C[C@@H]1c1ccc(C(=O)O)cc1
Given back: 0.042

Asked: Indicate the recorded IC50 value for this molecule: [2H]C([2H])([2H])N1CCN(Cc2c(OC)cc(C)c3[nH]ccc23)[C@H](c2ccc(C(=O)O)cc2)C1
Given back: 0.065

Asked: Indicate the recorded IC50 value for this molecule: COc1cc(Cl)c2[nH]ccc2c1CN1CCN(CC(F)F)C[C@H]1c1ccc(C(=O)O)cc1 [drawing 436]
Given back: 1.49

Asked: Indicate the recorded IC50 value for this molecule: COc1cc(C)c2[nH]ccc2c1CN1CCN(CCF)CC1c1ccc(C(=O)O)cc1 (stereo not drawn)
Given back: 0.065

Asked: Indicate the recorded IC50 value for this molecule: COc1cc(C)c2[nH]ccc2c1CN1CCN(C)CC1c1ccc(C(=O)O)cc1 (stereo not drawn)
Given back: 0.163

Asked: Indicate the recorded IC50 value for this molecule: COc1cc(C)c2[nH]ccc2c1CN1CCN(CCC(F)(F)F)C[C@@H]1c1ccc(C(=O)O)nc1
Given back: 6.44

Hello, the source for this data is patent US20240360103A1, in case you need it.
